Test system: Radio-resistant colorectal cancer tissue of patient (case C65)
Experiment: In vivo/ex vivo imaging and phage elution of Cy5.5-labeled peptide-expressing phages in mouse model transplanted with patient's colorectal cancer tissue (Example 4)
Parameters: species or system nude mouse
Conditions: case C65, irradiated population (2 Gy); extracted cancer tissue
Text: Then, the distributed cancer tissue was kept in a specific preservative solution and transferred directly to an animal chamber, so as to maintain a state in which the cancer tissue was not separated from a patient yet. After an NOD/SCID mouse was anesthetized via intraperitoneal injection of anesthetics, the cancer tissue was cut into pieces each having a size of 3×3 mm. Next, each of both flanks of the NOD/SCID mouse was transplanted with a piece of the cut cancer tissues, and sutured. […]
For each record, check the reported pfu/mg (concentration of eluted phages relative to weight of cancer tissue): if it is below 200 pfu/mg write satisfied, else write not satisfied.

substance="VPSQKSK [B4]" category_label=satisfied

Exercise: pfu/mg (concentration of eluted phages relative to weight of cancer tissue) under 200 pfu/mg? Item: TPSFSKI [B5]
Key: not satisfied

Exercise: Would you kindly repeat that for SHMEYPR [A1, 7-amino-acid loop peptide expressed on M13 phage, tested as Cy5.5-labeled phage] ?
Key: not satisfied

Exercise: Record: STMNGKV [B1]
Key: satisfied

Exercise: Repeat for the following substance: LKLGEKW [B7]
Key: satisfied

Exercise: GYSSFNR [B6] ?
Key: not satisfied
